System: E. coli WT ribosome GFP fluorescence, mixed culture, 24 h
Experiment: wild-type E. coli growth inhibition versus h38 humanized strain – h38 mutant RFP, wild-type GFP, cherry-pick, dose response (AID 977622)
Settings: E. coli mixed culture, 24 h; measured here: total growth OD600
Inconclusive results are not listed.
Give AC50 for every item shown.

Note to self: AC50 recorded for COc1ccc(NC(=O)CN(c2ccccc2OC)S(=O)(=O)c2cccs2)cc1Cl was > 100 µM

Note to self: AC50 recorded for COc1cc2c(c(OC)c1OC)C(c1ccc3c(c1)OCO3)CC(=O)O2 (centres undefined) was > 100 µM

Note to self: AC50 recorded for O=C(Nc1ccn(Cc2ccc(Cl)cc2)n1)c1ccccc1 was > 100 µM

Note to self: AC50 recorded for Cc1cccc(Oc2ccc(NC(=O)c3ccccc3C(=O)O)cc2)c1 was > 100 µM

Note to self: AC50 recorded for Cc1ccccc1-n1ncc2c1CC(C)(C)CC2NC(=O)CCN1Cc2ccccc2C1=O (centres undefined) was > 100 µM

Note to self: AC50 recorded for CCOC(=O)c1sc(Nc2cccc(Cl)c2)nc1C was > 100 µM

Note to self: AC50 recorded for O=C(Nc1ccc(C(=O)Nc2ccccc2Cl)cc1)c1cccnc1 was > 100 µM

Note to self: AC50 recorded for CCc1nn2cc(C(=O)c3cc(Cl)ccc3O)cnc2c1-c1ccc(F)cc1 was > 100 µM

Note to self: AC50 recorded for O=C(c1cc2cc(F)ccc2[nH]1)N1CCN(Cc2ccc3c(c2)OCO3)CC1 was 20.8 µM

Note to self: AC50 recorded for CCCN1C(=O)C(O)(c2c(C)[nH]c3ccccc23)c2ccccc21 (centres undefined) was > 100 µM

Note to self: AC50 recorded for CCN(CC)CCN(C(=O)c1ccccc1OC)c1nc2ccc(F)cc2s1 was > 100 µM

Note to self: AC50 recorded for CC(=O)Oc1c(Cl)cc(N(C(C)=O)S(=O)(=O)c2ccccc2)c2ccccc12 was 47.2 µM

Note to self: AC50 recorded for O=C(Nc1cccc(Cl)c1)N1C[C@@H]2[C@H](c3ccccc31)[C@H](CO)N2Cc1ccncc1 was > 100 µM

Note to self: AC50 recorded for COc1cccc(NC(=O)N(C)C[C@H]2Oc3ncc(C#Cc4cccnc4)cc3C(=O)N([C@H](C)CO)C[C@H]2C)c1 was > 100 µM

Note to self: AC50 recorded for CO[C@@H]1CN(C)C(=O)c2cc(NC(=O)C3CCCC3)ccc2OC[C@@H](C)N(C(=O)Nc2ccc(C(F)(F)F)cc2)C[C@H]1C was 49.5 µM

Note to self: AC50 recorded for CC(CCC(=O)O)C1CC[C@@]2(C)C3C(=O)CC4C(C)(C)C(O)CC[C@]4(C)C3C(=O)C[C@]12C (some centres undefined) was > 100 µM

Note to self: AC50 recorded for COc1ccc(NC(=O)Nc2cccc3c2O[C@@H](CN(C)S(=O)(=O)c2ccc(Cl)cc2)[C@@H](C)CN([C@@H](C)CO)C3=O)cc1 was 47.3 µM

Note to self: AC50 recorded for Nc1[nH]c(C(=O)c2ccccc2)c(-c2ccc3c(c2)OCO3)c1C(=O)NCCc1c[nH]c2ccccc12 was > 100 µM

Note to self: AC50 recorded for O=C(NCc1ccccc1)c1ccc(-c2cn[nH]c2)c2ccoc12 was > 100 µM

The measurements presented in this section are drawn from PubChem BioAssay AID977622.
